# Tested on: Staphylococcus aureus
# ASSAY_OVERVIEW: Antibacterial activity against methicillin-resistant Staphylococcus aureus DB57964 after 24 hrs by broth microdilution method
# Assay type: functional
# CONDITION_INFO: DB57964, 24 h
OBSERVED_PROPERTY: MIC (µg/mL)
One number for each entry, in µg/mL.

Count: 3. Required value per item: MIC.
1. COc1ccc(-c2oc3c(CC=C(C)C)c(O)cc(O)c3c(=O)c2O)cc1
2. N=C(N)NCCCCC(=O)Nc1cc(C(F)(F)F)cc(NC(=O)c2cc(C(=O)Nc3cc(C(F)(F)F)cc(NC(=O)CCCCNC(=N)N)c3O[C@@H]3CCNC3)ncn2)c1O[C@@H]1CCNC1
3. CC(C)(C)c1cc(C(C)(C)C)c2[nH]c(C(C)(C)C)c(C[C@H](NC(=O)[C@@H](N)CCCNC(=N)N)C(=O)N[C@@H](CCCNC(=N)N)C(=O)NCCc3ccccc3)c2c1

1. 50
2. 1
3. 4
